I'd appreciate it if you could supply log10 of MIC values for the items below.
System: Enterococcus faecalis
Experiment: Antimicrobial activity against Enterococcus faecalis 15376 over-expressing vanA
Type: functional
Recorded MIC (log10, µg/mL)

Problem: Look at this molecule and give its reported log10 of MIC. CC(=O)N[C@H]1[C@H](O[C@@H]2c3ccc(c(Cl)c3)Oc3cc4cc(c3O)Oc3ccc(cc3Cl)C[C@H]3NC(=O)[C@H](n5cc6cc7ccccc7cc6c5Sc5ncccn5)c5ccc(O)c(c5)Oc5cc(O)cc(c5)[C@H](NC3=O)C(=O)N[C@H]4C(=O)N[C@H]3C(=O)N[C@@H]2C(=O)N[C@H](C(=O)O)c2cc(O)cc(O)c2-c2cc3ccc2O)O[C@H](CO)[C@@H](O)[C@@H]1O
Solution: -0.30

Problem: Now give it for CC(=O)N[C@H]1[C@H](O[C@@H]2c3ccc(c(Cl)c3)Oc3cc4cc(c3O)Oc3ccc(cc3Cl)C[C@H]3NC(=O)[C@H](n5cc6ccccc6c5Sc5ncccn5)c5ccc(O)c(c5)Oc5cc(O)cc(c5)[C@H](NC3=O)C(=O)N[C@H]4C(=O)N[C@H]3C(=O)N[C@@H]2C(=O)N[C@H](C(=O)O)c2cc(O)cc(O)c2-c2cc3ccc2O)O[C@H](CO)[C@@H](O)[C@@H]1O too.
Solution: -1.20

Problem: Would you kindly repeat that for CC(=O)N[C@@H]1[C@@H](O)[C@H](O)[C@@H](CO)O[C@H]1Sc1c2ccccc2cn1[C@H]1C(=O)N[C@@H]2Cc3ccc(c(Cl)c3)Oc3cc4cc(c3O)Oc3ccc(cc3Cl)[C@@H](O[C@@H]3O[C@H](CO)[C@@H](O)[C@H](O)[C@H]3NC(C)=O)[C@@H]3NC(=O)[C@H](NC(=O)[C@@H]4NC(=O)[C@@H](NC2=O)c2cc(O)cc(c2)Oc2cc1ccc2O)c1ccc(O)c(c1)-c1c(O)cc(O)cc1[C@@H](C(=O)O)NC3=O ?
Solution: 0.00

Problem: CC(=O)N[C@H]1[C@H](O[C@@H]2c3ccc(c(Cl)c3)Oc3cc4cc(c3O)Oc3ccc(cc3Cl)C[C@H]3NC(=O)[C@H](n5cc6ccccc6c5S[C@@H]5O[C@H](CO)[C@@H](O)[C@H](O)[C@H]5O)c5ccc(O)c(c5)Oc5cc(O)cc(c5)[C@H](NC3=O)C(=O)N[C@H]4C(=O)N[C@H]3C(=O)N[C@@H]2C(=O)N[C@H](C(=O)O)c2cc(O)cc(O)c2-c2cc3ccc2O)O[C@H](CO)[C@@H](O)[C@@H]1O , same question.
Solution: -1.20

Problem: Next molecule up: CC(=O)N[C@H]1[C@H](O[C@@H]2c3ccc(c(Cl)c3)Oc3cc4cc(c3O)Oc3ccc(cc3Cl)C[C@H]3NC(=O)[C@H](n5cc6cc7ccccc7cc6c5Sc5ccccc5)c5ccc(O)c(c5)Oc5cc(O)cc(c5)[C@H](NC3=O)C(=O)N[C@H]4C(=O)N[C@H]3C(=O)N[C@@H]2C(=O)N[C@H](C(=O)O)c2cc(O)cc(O)c2-c2cc3ccc2O)O[C@H](CO)[C@@H](O)[C@@H]1O
Solution: -0.90

Problem: // query: CC(=O)N[C@H]1[C@H](O[C@@H]2c3ccc(c(Cl)c3)Oc3cc4cc(c3O)Oc3ccc(cc3Cl)C[C@H]3NC(=O)[C@H](n5cc6cc7ccccc7cc6c5Sc5nc6ccccc6s5)c5ccc(O)c(c5)Oc5cc(O)cc(c5)[C@H](NC3=O)C(=O)N[C@H]4C(=O)N[C@H]3C(=O)N[C@@H]2C(=O)N[C@H](C(=O)O)c2cc(O)cc(O)c2-c2cc3ccc2O)O[C@H](CO)[C@@H](O)[C@@H]1O
Solution: -1.50

====

For each of the compounds below, state its MIC.
Test system: Staphylococcus aureus
Assay: Antimicrobial activity against methicillin-resistant Staphylococcus aureus ATCC 33591
Format: functional
Numeric answer only, unit µg/mL assumed.

Problem: Using the record for CC(=O)N[C@H]1[C@H](O[C@@H]2c3ccc(c(Cl)c3)Oc3cc4cc(c3O)Oc3ccc(cc3Cl)C[C@H]3NC(=O)[C@H](n5cc6cc7ccccc7cc6c5Sc5ncccn5)c5ccc(O)c(c5)Oc5cc(O)cc(c5)[C@H](NC3=O)C(=O)N[C@H]4C(=O)N[C@H]3C(=O)N[C@@H]2C(=O)N[C@H](C(=O)O)c2cc(O)cc(O)c2-c2cc3ccc2O)O[C@H](CO)[C@@H](O)[C@@H]1O , report its MIC.
Solution: 0.015

Problem: Same question for CC(=O)N[C@@H]1[C@H](Oc2c3cc4cc2Oc2ccc(cc2Cl)[C@@H](O[C@@H]2O[C@@H](CO)[C@@H](O)[C@H](O)[C@@H]2NC(C)=O)[C@@H]2NC(=O)[C@H](NC(=O)[C@@H]4NC(=O)[C@H]4NC(=O)[C@@H](Cc5ccc(c(Cl)c5)O3)NC(=O)[C@H](N)c3ccc(O)c(c3)Oc3cc(O)cc4c3)c3ccc(O)c(c3)-c3c(O[C@H]4O[C@H](CO)[C@@H](O)[C@@H](O)[C@@H]4O)cc(O)cc3[C@@H](C(=O)O)NC2=O)O[C@@H](CO)[C@@H](O)[C@@H]1O please.
Solution: 0.5

====

Test system: Enterococcus faecalis
Assay: Antimicrobial activity against Enterococcus faecalis 15376 over-expressing vanA
Format: functional
Hi there, I'd appreciate the recorded MIC for every entry that follows.

Problem: Lab request: please report MIC under test system Enterococcus faecalis for CC(=O)N[C@H]1[C@H](O[C@@H]2c3ccc(c(Cl)c3)Oc3cc4cc(c3O)Oc3ccc(cc3Cl)C[C@H]3NC(=O)[C@H](n5cc6ccccc6c5Sc5nc6ccccc6s5)c5ccc(O)c(c5)Oc5cc(O)cc(c5)[C@H](NC3=O)C(=O)N[C@H]4C(=O)N[C@H]3C(=O)N[C@@H]2C(=O)N[C@H](C(=O)O)c2cc(O)cc(O)c2-c2cc3ccc2O)O[C@H](CO)[C@@H](O)[C@@H]1O
Solution: 0.0313 µg/mL

Problem: Next molecule: CC(=O)N[C@@H]1[C@H](Oc2c3cc4cc2Oc2ccc(cc2Cl)[C@@H](O[C@@H]2O[C@@H](CO)[C@@H](O)[C@H](O)[C@@H]2NC(C)=O)[C@@H]2NC(=O)[C@H](NC(=O)[C@@H]4NC(=O)[C@H]4NC(=O)[C@@H](Cc5ccc(c(Cl)c5)O3)NC(=O)[C@H](N)c3ccc(O)c(c3)Oc3cc(O)cc4c3)c3ccc(O)c(c3)-c3c(O[C@H]4O[C@H](CO)[C@@H](O)[C@@H](O)[C@@H]4O)cc(O)cc3[C@@H](C(=O)O)NC2=O)O[C@@H](CO)[C@@H](O)[C@@H]1O
Solution: 256 µg/mL

Problem: Next up: CC(=O)N[C@H]1[C@H](O[C@@H]2c3ccc(c(Cl)c3)Oc3cc4cc(c3O)Oc3ccc(cc3Cl)C[C@H]3NC(=O)[C@H](n5cc6ccccc6c5Sc5ccccc5)c5ccc(O)c(c5)Oc5cc(O)cc(c5)[C@H](NC3=O)C(=O)N[C@H]4C(=O)N[C@H]3C(=O)N[C@@H]2C(=O)N[C@H](C(=O)O)c2cc(O)cc(O)c2-c2cc3ccc2O)O[C@H](CO)[C@@H](O)[C@@H]1O
Solution: 2 µg/mL

====

Tested on: Human alphaherpesvirus 1
Test: Antiviral activity against HSV1 KOS infected in HEL cells assessed as inhibition of virus-induced cytopathic effect
Format: functional, organism-based
Conditions: Human alphaherpesvirus 1, KOS
Outcome Measure: EC50 (µM)
Respond numerically; units are µM and should not be typed.

Problem: Need EC50, item CC(=O)N[C@H]1[C@H](O[C@@H]2c3ccc(c(Cl)c3)Oc3cc4cc(c3O)Oc3ccc(cc3Cl)C[C@H]3NC(=O)[C@H](n5cc6cc7ccccc7cc6c5Sc5ncccn5)c5ccc(O)c(c5)Oc5cc(O)cc(c5)[C@H](NC3=O)C(=O)N[C@H]4C(=O)N[C@H]3C(=O)N[C@@H]2C(=O)N[C@H](C(=O)O)c2cc(O)cc(O)c2-c2cc3ccc2O)O[C@H](CO)[C@@H](O)[C@@H]1O
Solution: 40

Problem: Consider next the compound CC(=O)N[C@H]1[C@H](O[C@@H]2c3ccc(c(Cl)c3)Oc3cc4cc(c3O)Oc3ccc(cc3Cl)C[C@H]3NC(=O)[C@H](n5cc6ccccc6c5S[C@@H]5O[C@H](CO)[C@@H](O)[C@H](O)[C@H]5O)c5ccc(O)c(c5)Oc5cc(O)cc(c5)[C@H](NC3=O)C(=O)N[C@H]4C(=O)N[C@H]3C(=O)N[C@@H]2C(=O)N[C@H](C(=O)O)c2cc(O)cc(O)c2-c2cc3ccc2O)O[C@H](CO)[C@@H](O)[C@@H]1O in the same way.
Solution: 45

Problem: Proceed to O=c1[nH]c(=O)n([C@H]2C[C@H](O)[C@@H](CO)O2)cc1/C=C/Br
Solution: 0.024
